TARGET OR SYSTEM: S. pneumoniae LeuRS (SpLeuRS) (Streptococcus pneumoniae serotype 4, UniProt Q97SS0)
Sequence (Q97SS0 whole entry): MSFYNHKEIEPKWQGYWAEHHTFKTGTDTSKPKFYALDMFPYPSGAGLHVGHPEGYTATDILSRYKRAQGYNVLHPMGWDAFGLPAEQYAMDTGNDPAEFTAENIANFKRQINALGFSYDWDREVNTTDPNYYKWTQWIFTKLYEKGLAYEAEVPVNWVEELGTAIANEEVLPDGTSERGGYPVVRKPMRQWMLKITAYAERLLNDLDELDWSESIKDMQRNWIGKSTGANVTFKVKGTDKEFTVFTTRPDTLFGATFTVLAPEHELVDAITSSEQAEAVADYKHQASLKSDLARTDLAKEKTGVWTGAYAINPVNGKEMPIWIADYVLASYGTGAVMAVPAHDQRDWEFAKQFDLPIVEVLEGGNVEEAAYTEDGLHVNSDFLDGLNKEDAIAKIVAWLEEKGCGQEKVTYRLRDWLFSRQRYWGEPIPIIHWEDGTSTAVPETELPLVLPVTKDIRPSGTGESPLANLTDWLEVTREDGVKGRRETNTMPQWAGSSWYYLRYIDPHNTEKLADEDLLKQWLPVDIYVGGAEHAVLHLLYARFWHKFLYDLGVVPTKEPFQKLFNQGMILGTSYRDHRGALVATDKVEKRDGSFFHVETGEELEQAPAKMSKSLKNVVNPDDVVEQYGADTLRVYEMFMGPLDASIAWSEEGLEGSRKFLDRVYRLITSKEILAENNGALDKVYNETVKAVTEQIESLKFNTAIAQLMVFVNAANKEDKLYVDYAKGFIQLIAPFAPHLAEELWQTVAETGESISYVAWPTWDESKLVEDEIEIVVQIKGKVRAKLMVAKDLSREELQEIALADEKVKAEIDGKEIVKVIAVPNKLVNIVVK
MEASURED PARAMETER: IC50
Report the figure along with its unit, number first.

Sample OB1OCc2ccc(C(O)c3ccccc3)cc21 (stereo not shown) — what was its IC50?
1720 nM

---

TARGET OR SYSTEM: E. coli LeuRS (EcLeuRS) (Escherichia coli, UniProt P07813)
Sequence (P07813 whole entry): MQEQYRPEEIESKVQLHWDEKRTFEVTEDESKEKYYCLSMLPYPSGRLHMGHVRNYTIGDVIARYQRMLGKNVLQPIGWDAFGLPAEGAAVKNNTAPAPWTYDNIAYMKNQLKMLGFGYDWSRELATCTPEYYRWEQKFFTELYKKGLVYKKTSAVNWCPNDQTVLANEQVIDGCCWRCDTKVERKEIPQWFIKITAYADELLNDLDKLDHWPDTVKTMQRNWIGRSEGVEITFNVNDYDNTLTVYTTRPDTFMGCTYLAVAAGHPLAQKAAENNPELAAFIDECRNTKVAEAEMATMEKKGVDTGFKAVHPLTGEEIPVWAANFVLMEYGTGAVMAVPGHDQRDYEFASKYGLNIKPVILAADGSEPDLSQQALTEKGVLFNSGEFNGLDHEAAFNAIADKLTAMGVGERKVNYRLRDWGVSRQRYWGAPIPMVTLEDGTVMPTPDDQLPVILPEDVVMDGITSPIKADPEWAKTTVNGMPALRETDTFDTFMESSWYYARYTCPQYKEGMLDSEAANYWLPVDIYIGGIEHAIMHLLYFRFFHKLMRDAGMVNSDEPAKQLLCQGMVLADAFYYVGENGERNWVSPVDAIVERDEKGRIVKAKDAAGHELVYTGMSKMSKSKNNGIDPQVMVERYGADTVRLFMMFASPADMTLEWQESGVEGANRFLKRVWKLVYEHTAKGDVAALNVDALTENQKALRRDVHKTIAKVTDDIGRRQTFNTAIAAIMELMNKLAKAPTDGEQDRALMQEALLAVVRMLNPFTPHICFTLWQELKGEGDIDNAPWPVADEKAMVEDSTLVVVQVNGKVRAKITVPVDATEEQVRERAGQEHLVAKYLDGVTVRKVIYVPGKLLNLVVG
MEASURED PARAMETER: pIC50
Keep in mind that pIC50 stands for -log10 of concentration in molar terms.

Give the reported pIC50 for OB1OCc2ccc(C(O)c3ccccc3)cc21 (stereo not shown) [ZCL039] (system: E. coli LeuRS (EcLeuRS) (Escherichia coli, UniProt P07813)).
5.08

---

TARGET OR SYSTEM: Human mitochondrial LeuRS (Homo sapiens)
Sequence (Q15031 whole entry): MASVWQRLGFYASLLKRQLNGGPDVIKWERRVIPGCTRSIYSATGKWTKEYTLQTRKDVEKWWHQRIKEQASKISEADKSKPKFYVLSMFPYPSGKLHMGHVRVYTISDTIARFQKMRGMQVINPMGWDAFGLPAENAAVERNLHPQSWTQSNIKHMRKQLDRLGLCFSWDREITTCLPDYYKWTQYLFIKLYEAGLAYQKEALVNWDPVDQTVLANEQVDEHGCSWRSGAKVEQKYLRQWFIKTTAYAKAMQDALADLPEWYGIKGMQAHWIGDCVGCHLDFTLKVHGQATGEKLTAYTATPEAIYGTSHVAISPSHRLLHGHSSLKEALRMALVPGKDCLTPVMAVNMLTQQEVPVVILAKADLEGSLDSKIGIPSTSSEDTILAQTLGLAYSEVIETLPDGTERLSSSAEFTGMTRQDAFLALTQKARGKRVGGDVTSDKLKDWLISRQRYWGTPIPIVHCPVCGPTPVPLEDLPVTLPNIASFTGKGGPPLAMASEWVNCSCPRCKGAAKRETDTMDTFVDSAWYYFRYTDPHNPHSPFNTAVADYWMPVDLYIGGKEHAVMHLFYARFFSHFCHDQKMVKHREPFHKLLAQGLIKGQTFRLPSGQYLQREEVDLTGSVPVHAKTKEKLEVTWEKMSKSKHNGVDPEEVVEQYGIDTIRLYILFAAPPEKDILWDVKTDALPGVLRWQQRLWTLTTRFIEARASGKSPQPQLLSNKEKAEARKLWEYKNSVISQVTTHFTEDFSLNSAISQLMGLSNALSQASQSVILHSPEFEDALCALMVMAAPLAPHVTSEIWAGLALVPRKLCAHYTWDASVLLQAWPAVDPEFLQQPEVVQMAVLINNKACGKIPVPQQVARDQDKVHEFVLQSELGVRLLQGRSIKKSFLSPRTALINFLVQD
MEASURED PARAMETER: IC50

Sample OB1OCc2ccc(C(O)c3ccccc3)cc21 (stereo not shown) — what was its IC50?
> 250 µM
